MEASURED_ON: T1, GFP-9S library array, motif 4 ND N98G;D124F (synthetic construct, N98G;D124F)
T1 chain: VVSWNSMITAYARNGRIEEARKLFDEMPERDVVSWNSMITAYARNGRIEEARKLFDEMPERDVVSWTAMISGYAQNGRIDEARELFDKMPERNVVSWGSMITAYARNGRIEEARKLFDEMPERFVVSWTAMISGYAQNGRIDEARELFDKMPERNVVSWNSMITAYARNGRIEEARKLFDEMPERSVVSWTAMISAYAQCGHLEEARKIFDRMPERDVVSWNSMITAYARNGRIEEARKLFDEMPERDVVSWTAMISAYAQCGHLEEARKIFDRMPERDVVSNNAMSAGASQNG
ASSAY_DETAILS: high-throughput RNA pulldown from lysate on Ni-NTA beads; HRP: 50 mM Tris pH 8, 150 mM NaCl, 1 mM beta-mercaptoethanol, 50 ug/ml BSA, 3 ug/ml yeast RNA, 0.5% heparin; ITC and FP: Tris pH 8, 200 mM KCl, 5% glycerol; MST: 50 mM Tris pH 8, 200 mM NaCl, 1 mM DTT, BSA, heparin, 0.05% Tween 20
MEASUREMENT_CONTEXT: tags: N-terminal His-eGFP; label: 5' Cy5
READOUT_KIND: pKd
# pKd: negative log10 of molar concentration; output just the value

Q: // returns reported pKd for input AUUAGACGUGA (ssRNA) [Cy5-rpoA-G]
A: 7.02

Q: AUUACACGUGA (ssRNA) [Cy5-rpoA] , same question.
A: 7.16
